Source listed as patent US20250296948A1.

test.name: 6 month dry powder stability, Alpha Naphthol content by HPLC
Type: physicochemical
condition.info: 2-8 ° C., 0 months
Quick reference: Alpha Naphthol by HPLC (% w/w) of the listed items.

compound	Alpha Naphthol by HPLC (% w/w)
C[C@H](NP(=O)(OC[C@H]1O[C@@H](n2cc(F)c(=O)[nH]c2=O)CC1O)Oc1cccc2ccccc12)C(=O)OCc1ccccc1 (stereo partly shown) [Example 3, Batch 1]	0.15
C[C@H](NP(=O)(OC[C@H]1O[C@@H](n2cc(F)c(=O)[nH]c2=O)CC1O)Oc1cccc2ccccc12)C(=O)OCc1ccccc1 (stereo partly shown) [Example 3, Batch 2]	0.44
C[C@H](NP(=O)(OC[C@H]1O[C@@H](n2cc(F)c(=O)[nH]c2=O)CC1O)Oc1cccc2ccccc12)C(=O)OCc1ccccc1 (stereo partly shown) [Comparative Example 4]	0.09
C[C@H](NP(=O)(OC[C@H]1O[C@@H](n2cc(F)c(=O)[nH]c2=O)CC1O)Oc1cccc2ccccc12)C(=O)OCc1ccccc1 (stereo partly shown) [Example 3, Batch 3]	0.18

----------
test.name: 6 month dry powder stability, HPLC assay
Assay type: physicochemical
condition.info: 40 ° C., 3 months
Overview of recorded HPLC assay (% w/w on anhydrous and solvent free basis) for various compounds
measured.metric: HPLC assay (% w/w on anhydrous and solvent free basis)

compound	result
C[C@H](NP(=O)(OC[C@H]1O[C@@H](n2cc(F)c(=O)[nH]c2=O)CC1O)Oc1cccc2ccccc12)C(=O)OCc1ccccc1 (stereo partly shown) [Comparative Example 4]	99.3 % w/w
C[C@H](NP(=O)(OC[C@H]1O[C@@H](n2cc(F)c(=O)[nH]c2=O)CC1O)Oc1cccc2ccccc12)C(=O)OCc1ccccc1 (stereo partly shown) [Example 3, Batch 2]	101.5 % w/w
C[C@H](NP(=O)(OC[C@H]1O[C@@H](n2cc(F)c(=O)[nH]c2=O)CC1O)Oc1cccc2ccccc12)C(=O)OCc1ccccc1 (stereo partly shown) [Example 3, Batch 1]	101.6 % w/w
C[C@H](NP(=O)(OC[C@H]1O[C@@H](n2cc(F)c(=O)[nH]c2=O)CC1O)Oc1cccc2ccccc12)C(=O)OCc1ccccc1 (stereo partly shown) [Example 3, Batch 3]	102.2 % w/w

----------
test.name: 6 month dry powder stability, HPLC assay
Assay type: physicochemical
condition.info: 25 ° C., 3 months
measured.metric: HPLC assay (% w/w on anhydrous and solvent free basis) (% w/w)

molecule	unit.text	number
C[C@H](NP(=O)(OC[C@H]1O[C@@H](n2cc(F)c(=O)[nH]c2=O)CC1O)Oc1cccc2ccccc12)C(=O)OCc1ccccc1 (stereo partly shown) [Comparative Example 4]	% w/w	99.5
C[C@H](NP(=O)(OC[C@H]1O[C@@H](n2cc(F)c(=O)[nH]c2=O)CC1O)Oc1cccc2ccccc12)C(=O)OCc1ccccc1 (stereo partly shown) [Example 3, Batch 2]	% w/w	101.1
C[C@H](NP(=O)(OC[C@H]1O[C@@H](n2cc(F)c(=O)[nH]c2=O)CC1O)Oc1cccc2ccccc12)C(=O)OCc1ccccc1 (stereo partly shown) [Example 3, Batch 1]	% w/w	101.1
C[C@H](NP(=O)(OC[C@H]1O[C@@H](n2cc(F)c(=O)[nH]c2=O)CC1O)Oc1cccc2ccccc12)C(=O)OCc1ccccc1 (stereo partly shown) [Example 3, Batch 3]	% w/w	101.8

----------
Recorded HPLC assay (% w/w on anhydrous and solvent free basis) by entry
test.name: 6 month dry powder stability, HPLC assay
Format: physicochemical
condition.info: 2-8 ° C., 3 months
measured.metric: HPLC assay (% w/w on anhydrous and solvent free basis) (% w/w)

compound	number
C[C@H](NP(=O)(OC[C@H]1O[C@@H](n2cc(F)c(=O)[nH]c2=O)CC1O)Oc1cccc2ccccc12)C(=O)OCc1ccccc1 (stereo partly shown) [Comparative Example 4]	100
C[C@H](NP(=O)(OC[C@H]1O[C@@H](n2cc(F)c(=O)[nH]c2=O)CC1O)Oc1cccc2ccccc12)C(=O)OCc1ccccc1 (stereo partly shown) [Example 3, Batch 2]	101.3
C[C@H](NP(=O)(OC[C@H]1O[C@@H](n2cc(F)c(=O)[nH]c2=O)CC1O)Oc1cccc2ccccc12)C(=O)OCc1ccccc1 (stereo partly shown) [Example 3, Batch 3]	101.9
C[C@H](NP(=O)(OC[C@H]1O[C@@H](n2cc(F)c(=O)[nH]c2=O)CC1O)Oc1cccc2ccccc12)C(=O)OCc1ccccc1 (stereo partly shown) [Example 3, Batch 1]	101.5
